# TARGET: Sirt2 (Homo sapiens, UniProt Q8IXJ6)
# Sequence (Q8IXJ6 34-356): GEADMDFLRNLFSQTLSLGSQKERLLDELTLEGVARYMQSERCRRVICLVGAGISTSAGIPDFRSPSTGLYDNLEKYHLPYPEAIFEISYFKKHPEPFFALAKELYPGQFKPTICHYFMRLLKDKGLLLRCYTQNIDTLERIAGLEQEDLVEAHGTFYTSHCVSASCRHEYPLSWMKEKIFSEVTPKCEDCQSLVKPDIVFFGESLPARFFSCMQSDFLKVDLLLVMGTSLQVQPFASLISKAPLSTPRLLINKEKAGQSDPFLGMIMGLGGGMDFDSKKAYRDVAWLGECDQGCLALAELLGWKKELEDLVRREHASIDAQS
# ASSAY_DETAILS: Fluor-de-Lys peptide deacetylation assay, Sirt2
# Assay type: biochemical
REPORTED_METRIC: IC50

• CC12Cc3cnc(-c4ccccc4)nc3CC1CCC1C2CCC2(C)C1CCC2(C)O (stereo not shown) [CSC13] = 9.7 µM

###

# TARGET: Sirt2 (Homo sapiens)
# ASSAY_DETAILS: Fluor-de-Lys peptide deacetylation assay, Sirt2
# Type: biochemical
# STUDY_CONDITIONS: dose-response, substrate peptide concentration 100 μM; read-out: IC50 against Sirt2
REPORTED_METRIC: IC50 (µM)

• C[C@]12CC[C@@H]3c4ccc(O)cc4CC[C@H]3[C@@H]1CCC2OC(=O)CCc1ccccc1 (stereo partly shown) = 4.8

Values were extracted from paper PMC3227451.
